Values were extracted from patent EP0300107A1.

- ASSAY TEXT: Plasma levels after intramuscular injection in the dog
- Design: species or system chien
- MEASUREMENT CONTEXT: dog, in vivo, im; chien, i.m., 15 mg/kg en équivalent acide oxolinique, 2 h; read-out: Taux plasmatiques
MEASURED ATTRIBUTE: concentration at 2 h (ng/mL)
Field: numeric (ng/mL). Do not append units.

Ask: Which concentration at 2 h reading was recorded for the molecule CCn1cc(C(=O)O)c(=O)c2cc3c(cc21)OCO3 [Acide oxolinique, acide oxolinique, reference compound] ?
Reply: 5460

---

- ASSAY TEXT: Plasma levels after intravenous injection in the dog
- Design: species or system chien
- MEASUREMENT CONTEXT: in vivo, chien, i.v., 15 mg/kg en équivalent acide oxolinique, 2 h, read-out: Taux plasmatiques
MEASURED ATTRIBUTE: concentration at 2 h (ng/mL)
State the answer as a number, implicitly in ng/mL.

Ask: // query concentration at 2 h value for entry CCn1cc(C(=O)O)c(=O)c2cc3c(cc21)OCO3 [Acide oxolinique, acide oxolinique, reference compound]
Reply: 22300
